Counter-ions that a name gives are not always drawn.
We begin with a simple list: items and their reported melting point.

* CSc1nc2cc(N3CCNCC3)c(Cl)cc2[nH]1 (as salt: HCl) | 235 to 237 °C

// lookup melting point for COC(=O)c1cc2c(cc1Cl)nc(SCC=NNC(N)=O)n2C 196.7 to 197.1 °C

// lookup melting point for CCCSc1ccc2c(c1)nc(NC(=O)OC)n2C 120.5 to 122.1 °C

// lookup melting point for COC(=O)Nc1nc2ccc(Cl)cc2n1C (hydrate or solvate) 191.3 to 192.4 °C

// lookup melting point for COC(=O)c1cc2c(cc1Cl)nc(SCCNC(=N)N)n2C 172.9 to 173.4 °C

====

We begin with a simple list: items and their reported pIC50.
Test system: amastigote of L. mexicana
assay name: Biological activity against intracellular amastigotes in J774.2 macrophages, resazurin
Type: cell-based, Leishmania mexicana
run conditions: Leishmania mexicana; intracellular L. mexicana amastigotes in J774.2 macrophages, 48 h
Friendly reminder that pIC50 comes from taking -log10 of the concentration in mol/L.

See these solved cases before continuing.
• C[C@@H]1[C@H](O)[C@@H](C)/C=C/C=C/C=C/C=C/C=C/C=C/C=C/[C@H](O[C@@H]2O[C@H](C)[C@@H](O)[C@H](N)[C@@H]2O)C[C@@H]2O[C@](O)(C[C@@H](O)C[C@@H](O)[C@H](O)CC[C@@H](O)C[C@@H](O)CC(=O)O[C@H]1C)C[C@H](O)[C@H]2C(=O)O = 5.89
• CCCCCCCCCCCCCCCCOP(=O)([O-])OCC[N+](C)(C)C = 5.07
• CSc1nc2cc(C(N)=O)c(Cl)cc2[nH]1 = 4.00

Now for a further compound.
// lookup pIC50 for COC(=O)Nc1nc2cc(Cl)ccc2n1C 4.49
